All values here come from paper PMC4336329.

biological target: human ether-à-go-go-related gene (hERG) potassium channel (human, UniProt Q12809); assay: primary screen, population patch clamp on CHO cells stably expressing hERG; higher = less effect of the substance;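 note: peak tail current of the secondary pulse compared with the same well before compound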
Sequence (Q12809 whole entry, looked up): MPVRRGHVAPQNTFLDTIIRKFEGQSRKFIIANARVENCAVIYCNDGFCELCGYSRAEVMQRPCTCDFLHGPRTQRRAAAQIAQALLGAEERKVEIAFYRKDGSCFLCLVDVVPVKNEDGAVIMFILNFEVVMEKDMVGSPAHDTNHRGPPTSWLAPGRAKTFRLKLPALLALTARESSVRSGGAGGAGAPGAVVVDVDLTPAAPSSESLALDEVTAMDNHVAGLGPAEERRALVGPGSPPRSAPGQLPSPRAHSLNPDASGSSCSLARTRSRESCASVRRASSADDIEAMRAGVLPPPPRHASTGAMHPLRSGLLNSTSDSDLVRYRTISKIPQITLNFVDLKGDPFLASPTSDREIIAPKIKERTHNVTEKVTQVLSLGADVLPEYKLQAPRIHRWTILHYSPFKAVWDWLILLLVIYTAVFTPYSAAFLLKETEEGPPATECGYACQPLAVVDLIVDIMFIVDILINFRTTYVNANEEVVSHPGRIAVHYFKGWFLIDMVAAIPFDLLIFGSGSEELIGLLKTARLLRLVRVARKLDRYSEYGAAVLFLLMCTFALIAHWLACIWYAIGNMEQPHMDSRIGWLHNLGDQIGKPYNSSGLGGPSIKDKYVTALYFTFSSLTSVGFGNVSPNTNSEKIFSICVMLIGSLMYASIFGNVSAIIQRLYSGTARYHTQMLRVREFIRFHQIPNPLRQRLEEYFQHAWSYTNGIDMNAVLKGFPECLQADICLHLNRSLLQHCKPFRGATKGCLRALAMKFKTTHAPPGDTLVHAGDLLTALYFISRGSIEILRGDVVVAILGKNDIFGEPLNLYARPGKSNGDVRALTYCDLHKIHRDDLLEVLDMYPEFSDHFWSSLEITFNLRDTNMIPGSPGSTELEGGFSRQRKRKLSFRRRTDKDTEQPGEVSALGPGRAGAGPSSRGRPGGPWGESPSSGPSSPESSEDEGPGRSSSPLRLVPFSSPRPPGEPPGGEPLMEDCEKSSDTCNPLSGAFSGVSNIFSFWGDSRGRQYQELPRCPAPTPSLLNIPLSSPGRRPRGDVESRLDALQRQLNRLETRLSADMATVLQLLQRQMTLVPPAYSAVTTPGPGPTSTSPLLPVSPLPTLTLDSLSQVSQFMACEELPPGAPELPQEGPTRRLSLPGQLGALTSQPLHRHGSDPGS
The campaign covered roughly 310,000 compounds. About 14,000 (4.5%) showed an effect of 50% or more. Effects have a minus sign here. Shown is part of a subset that was picked to be rich in strong results.
valueKind: hERG current change (%, negative = inhibition) at 10uM (%)
Your answer should be a plain number; it is taken to be in %.

compound	recordedNumber
CCCNC(=O)c1ccc2c(c1)S(=O)(=O)c1ccccc1C2=O	-10.9
CCOC(=O)c1cc2c(=O)n3ccccc3nc2n(C)c1=NC(=O)c1c(-c2c(F)cccc2Cl)noc1C	14
CCCn1c(=NC(=O)c2ccco2)c(C(=O)OCC)cc2c(=O)n3ccccc3nc21	-66.7
CCCOc1ccc(C(=O)Nc2c[nH]c(=O)[nH]c2=O)cc1	-6.41
CCCCCn1c(=NC(=O)c2ccco2)c(C(=O)OCC)cc2c(=O)n3ccccc3nc21	-73.5
COc1ccc(NS(=O)(=O)c2cccc3nsnc23)cc1Cl	11.2
CCOC(=O)c1cc2c(=O)n3ccccc3nc2n(C(C)C)c1=NC(=O)c1c(-c2ccccc2Cl)noc1C	24.3
COc1ccc(OC)c(S(=O)(=O)N2Cc3ccccc3CC2C(=O)Nc2nccs2)c1 (stereo not drawn)	22.2

Next compound, hERG current change (%, negative = inhibition) at 10uM to be filled in.
Q. hERG current change (%, negative = inhibition) at 10uM lookup needed for "CCOC(=O)c1cc2c(=O)n3ccccc3nc2n(C(C)C)c1=NC(=O)c1ccncc1" , thanks.
A. -67.5
